system: IRAK3; conditions: concentration: 1 μM, replicates: in singlicate; n = 1;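 note: KINOMEscan kinase panel screen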
// values below are reported %Inh

# MOLECULE, UNIT, %Inh
records = [
    ("Cc1cc(-c2ccc3c(c2)CC[C@@H](N[C@@H](C)c2ccccc2)C3)cnc1N.Cl [GW412617]", "%", 2),
    ("Cl.Oc1ccc(-c2nc(-c3ccccc3)[nH]c2-c2ccncc2)cc1 [SB-428218]", "%", 0),
    ("CC(C)(C)c1ccc(C(=O)Nc2cn3cc(Cl)ccc3n2)cc1", "%", 23),
    ("O=C1NC(=O)C(N2CCc3ccccc32)=C1c1ccccc1Cl [SB-373598]", "%", 9),
    ("Cc1ccccc1-n1cnc2c(N)ncnc21 [SKF-97510]", "%", 0),
    ("Fc1cccc(COc2nnc(-c3ccc4c(c3)CCO4)o2)c1", "%", 0),
    ("O=C(Nc1n[nH]c2cc(-c3cccc(F)c3F)ccc12)C1CC1 [SB-733894]", "%", 10),
    ("O=c1cc(N2CCOCC2)nc2n(Cc3cccc(Cl)c3Cl)ccn12 [GSK2286295]", "%", 3),
    ("Nc1ncnc2[nH]c(-c3ccccc3)nc12 [AH5015]", "%", 0),
    ("NC(=O)c1nnc2ccccc2c1N", "%", 19),
]

* * *

test system: PRKCI; conditions: concentration: 1 μM, replicates: in singlicate; n = 1
// values below are reported %Inh
EXPERIMENTAL READOUT: %Inh (%)

# MOLECULE, UNIT, OBS VALUE
records = [
    ("Cl.NC(=O)c1cccc(Nc2nccc(Nc3ccc(Oc4cccc(Cl)c4)c(Cl)c3)n2)c1", "%", 10),
    ("Cc1cccc(-c2nc(-c3ccc(S(C)(=O)=O)cc3)sc2-c2ccnc(NCCc3ccccc3)c2)c1", "%", 6),
    ("CC1=C(C(=O)Nc2cc3cn[nH]c3cc2F)C(c2ccc(C(F)(F)F)cc2)CC(=O)N1 (stereo not drawn)", "%", 19),
    ("O=C1NC(=O)C(N2CCc3ccccc32)=C1c1ccccc1Cl", "%", 0),
    ("CC(C)(C)c1ccc(C(=O)Nc2cn3cc(-c4cccnc4)ccc3n2)cc1", "%", 26),
    ("Cl.c1ccc(-c2n[nH]cc2-c2ccnc(-c3ccc(CN4CCOCC4)cc3)c2)nc1", "%", 48),
    ("Cc1cccc(-c2nc(Nc3ccncc3)c3ccccc3n2)n1", "%", 32),
    ("Cc1cc(NCC(c2ccccc2)c2ccccc2)nc(NCc2ccc(C(F)(F)F)cc2)n1", "%", 2),
    ("Nc1ncnc2[nH]c(-c3ccccc3)nc12", "%", 0),
]

* * *

// values below are reported %Inh
system: TAOK2; settings: concentration: 1 μM, replicates: in singlicate; n = 1

# COMPOUND, %Inh (%)
records = [
    ("C[C@@H]1CCCCN1c1cc(-c2ccc3c(N)n[nH]c3c2)nc(N)n1 [GSK2258759]", 0),
    ("COc1ccc(CNC(=O)NC2CCN(c3ccnc(Nc4cc(OC)c(OC)c(OC)c4)n3)C2)cc1 (centres unmarked) [GSK1379748]", 0),
    ("Nc1ncnc2[nH]c(-c3ccccc3)nc12 [AH5015]", 0),
    ("COc1ccc(C2=C(Nc3cccc(C(=O)O)c3)C(=O)NC2=O)cc1 [SB-390765]", 28),
    ("Cc1cccc(-c2cc(Nc3ccncc3)c3ccccc3n2)n1 [GSK223675]", 0),
]

* * *

test system: BRSK1; settings: concentration: 1 μM, replicates: in singlicate; n = 1
EXPERIMENTAL READOUT: %Inh (%)

# COMPOUND, OBS VALUE
rows = [
    ("CC(C)(C)c1ccc(C(=O)Nc2cn3cc(-c4cccnc4)ccc3n2)cc1", 6),
    ("COC(=O)c1c(-c2ccccc2)c2cc(C(=O)O)ccc2c(=O)n1Cc1ccccc1", 0),
    ("COc1cc2ncn(-c3cc(OCC4CCCO4)c(C(N)=O)s3)c2cc1OC (stereo not drawn) [GSK204607]", 15),
    ("Cl.NC(=O)c1cccc(Nc2nccc(Nc3ccc(Oc4cccc(Cl)c4)c(Cl)c3)n2)c1 [GW659008]", 0),
    ("Cn1ccc2ncnc(Oc3ccc(NC(=O)Nc4ccccc4)cc3)c21", 0),
    ("Cl.c1ccc(-c2n[nH]cc2-c2ccnc(-c3ccc(CN4CCOCC4)cc3)c2)nc1 [GW776245]", 0),
    ("Cc1cccc(-c2nc(Nc3cccc(C(N)=O)c3)c3ccccc3n2)n1 [GW876019]", 18),
    ("Cc1cc(NCC(c2ccccc2)c2ccccc2)nc(NCc2ccc(C(F)(F)F)cc2)n1 [GW497681]", 0),
    ("COc1ccc(Nc2nccc(NCCNC(=O)Nc3ccccc3F)n2)cc1 [GSK1379901]", 16),
]

* * *

system: SNARK; construct: gene NUAK2; details: concentration: 1 μM, replicates: in singlicate; n = 1

# MOLECULE, UNIT, %Inh
data = [
    ("Cc1c(Cn2ccn3c(=O)cc(N4CCOCC4)nc23)cccc1C(F)(F)F", "%", 5),
    ("Cc1nnc(-c2ccc3occ(-c4ccc(S(C)=O)cc4)c3c2)[nH]1 (stereo not shown)", "%", 11),
    ("NC(=O)c1nnc2ccccc2c1N", "%", 67),
    ("CN(C)CCN(C)C(=O)c1cc(-c2ccncc2)c(-c2ccc(Cl)c(O)c2)o1.Cl.Cl", "%", 0),
]

* * *

// values below are reported %Inh
system: ERK1; construct: gene MAPK3; conditions: concentration: 1 μM, replicates: in singlicate; n = 1
EXPERIMENTAL READOUT: %Inh (%)

# COMPOUND, SUBJECT OF TEST, OBS VALUE
rows = [
    ("COc1ccc(C2=C(Nc3cccc(C(=O)O)c3)C(=O)NC2=O)cc1", "ERK1", 0),
    ("CCn1c(-c2ccccn2)nc2cnccc21", "ERK1", 11),
    ("CC(C)(C)c1ccc(C(=O)Nc2cn3cc(-c4cccnc4)ccc3n2)cc1", "ERK1", 0),
    ("COC(=O)c1c(-c2ccccc2)c2cc(OC)ccc2c(=O)n1Cc1ccccc1", "ERK1", 0),
    ("COc1cccc(NC(=O)NC2CCN(c3ccnc(Nc4ccc(F)cc4)n3)C2)c1 (centres unmarked)", "ERK1", 0),
    ("O=S(=O)(c1ccc(-c2ccnc3[nH]ccc23)cc1)N1CCCC1", "ERK1", 0),
    ("Cc1cccc(-c2nc(C)cc(Nc3ccncc3)n2)n1", "ERK1", 0),
    ("Cc1ccc(C(=O)Nc2ccc(Nc3ccnc4cc(-c5ccccn5)ccc34)cc2O)cc1.Cl", "ERK1", 5),
    ("Fc1cc(Cl)ccc1Nc1ccnc2cc(I)ccc12", "ERK1", 0),
    ("O=C(O)COc1ncnc2cc(-c3ccc4[nH]ncc4c3)sc12", "ERK1", 0),
    ("O=C1NC(=O)C(N2CCc3ccccc32)=C1c1ccccc1Cl", "ERK1", 17),
    ("NC(=O)c1nnc2ccccc2c1N", "ERK1", 0),
    ("Cl.O=C(Nc1cccc(-c2nn3ncccc3c2-c2ccnc(Nc3cccnc3)n2)c1)c1c(F)cccc1F", "ERK1", 8),
    ("O=C(Nc1n[nH]c2nc(-c3nccs3)c(Br)cc12)C1CC1", "ERK1", 0),
    ("COc1ccc(Nc2nccc(NCCNC(=O)Nc3ccccc3F)n2)cc1", "ERK1", 0),
    ("O=C(Nc1n[nH]c2cc(-c3cccc(F)c3F)ccc12)C1CC1", "ERK1", 0),
    ("Clc1cc(Cl)cc(Nc2ccnc(Nc3cc(Cl)cc(Cl)c3)n2)c1", "ERK1", 0),
    ("CS(=O)(=O)c1ccc(-c2nc3n(c2-c2ccncc2)CCC3)cc1", "ERK1", 0),
    ("Cn1ccc2ncnc(Oc3ccc(Nc4nc5ccccc5[nH]4)cc3)c21", "ERK1", 0),
    ("Nc1nc(-c2nccs2)c(-c2ccnc3ccccc23)s1", "ERK1", 6),
    ("CS(=O)(=O)c1ccc(-c2c(-c3ncn[nH]3)sc(N3CCOCC3)c2C#N)cc1", "ERK1", 0),
    ("Fc1cccc(COc2nnc(-c3ccc4c(c3)CCO4)o2)c1", "ERK1", 0),
    ("O=C(Nc1ccc2c(c1)OCO2)NC1CCN(c2ccnc(Nc3ccc(F)cc3)n2)C1 (centres unmarked)", "ERK1", 0),
    ("Cc1cccc(-c2cc(Nc3ccncc3)c3ccccc3n2)n1", "ERK1", 0),
    ("CC(C)(C)c1ccc(C(=O)Nc2cn3cc(Cl)ccc3n2)cc1", "ERK1", 0),
    ("Cc1c(O)cccc1Nc1ccnc2ccc(C(F)(F)F)cc12.Cl", "ERK1", 0),
    ("O=C(Nc1ccccc1)Nc1cccc(Oc2ccc3nccn3n2)c1", "ERK1", 0),
    ("COc1ccccc1CNC(=O)c1cc(C(=O)c2ccccc2C)c[nH]1", "ERK1", 0),
    ("Cc1ccc(-c2cc(-c3c[nH]nc3-c3ccccn3)ccn2)cc1", "ERK1", 37),
    ("COc1cc2ncn(-c3cc(OCC4CCCO4)c(C(N)=O)s3)c2cc1OC (centres unmarked)", "ERK1", 2),
    ("Cc1cccc(-c2nc(Nc3ccc4[nH]ncc4c3)c3ccccc3n2)n1", "ERK1", 0),
    ("Cc1ccccc1-n1cnc2c(N)ncnc21", "ERK1", 0),
    ("Cc1cc(NCC(c2ccccc2)c2ccccc2)nc(NCc2ccc(C(F)(F)F)cc2)n1", "ERK1", 0),
    ("COc1ccc(Nc2nccc(-c3cccc(NC(=O)c4cc5cc(F)ccc5[nH]4)c3)n2)cc1", "ERK1", 13),
    ("Cc1c(Cn2ccn3c(=O)cc(N4CCOCC4)nc23)cccc1C(F)(F)F", "ERK1", 0),
    ("C[C@@H]1CCCCN1c1cc(-c2ccc3c(N)n[nH]c3c2)nc(N)n1", "ERK1", 8),
    ("CC(=O)Nc1nc2cnc(Nc3cc(NC(=O)c4cccc(CCC#N)c4)ccc3C)nc2s1", "ERK1", 0),
    ("Cc1cc(N2Cc3ccccc3C2)nc(Nc2ccc(S(=O)(=O)N3CCOCC3)cc2)n1.Cl", "ERK1", 0),
]
